- Protocol Details: Antioxidant activity assessed as DPPH scavenging activity measured after 3 mins by spectrophotometric method
- Assay type: physicochemical
Measured Metric: EC50

Compound	EC50
CCOP(=O)(OCC)C(C)(C)/[N+]([O-])=C/c1ccccc1[N+](=O)[O-]	> 1 mM
CCOP(=O)(OCC)C(C)(C)/[N+]([O-])=C/c1ccc([N+](=O)[O-])cc1	> 1 mM
CCOP(=O)(OCC)C(C)(C)/[N+]([O-])=C/c1cc(O)c(O)c(O)c1	0.019 mM
COc1cc(/C=C/C(=O)O)cc(OC)c1O [SINAPINATE]	0.035 mM

// each listed compound needs a value for EC50
1. CCOP(=O)(OCC)C(C)(C)/[N+]([O-])=C/c1c(C)cccc1C
2. CC(C)(C)/[N+]([O-])=C/c1ccccc1
3. CCOP(=O)(OCC)C(C)(C)/[N+]([O-])=C/c1ccc(O)cc1O
4. CCOP(=O)(OCC)C(C)(C)/[N+]([O-])=C/c1ccc(C(=O)O)cc1
5. O=C(O)c1cc(O)c(O)c(O)c1
6. CCOP(=O)(OCC)C(C)(C)/[N+]([O-])=C/c1ccccc1

1: > 1 mM; 2: > 1 mM; 3: > 1 mM; 4: > 1 mM; 5: 0.007 mM; 6: > 1 mM
